# TGT: D2 receptors (Chlorocebus aethiops, UniProt P52702)
# Sequence (P52702 whole entry): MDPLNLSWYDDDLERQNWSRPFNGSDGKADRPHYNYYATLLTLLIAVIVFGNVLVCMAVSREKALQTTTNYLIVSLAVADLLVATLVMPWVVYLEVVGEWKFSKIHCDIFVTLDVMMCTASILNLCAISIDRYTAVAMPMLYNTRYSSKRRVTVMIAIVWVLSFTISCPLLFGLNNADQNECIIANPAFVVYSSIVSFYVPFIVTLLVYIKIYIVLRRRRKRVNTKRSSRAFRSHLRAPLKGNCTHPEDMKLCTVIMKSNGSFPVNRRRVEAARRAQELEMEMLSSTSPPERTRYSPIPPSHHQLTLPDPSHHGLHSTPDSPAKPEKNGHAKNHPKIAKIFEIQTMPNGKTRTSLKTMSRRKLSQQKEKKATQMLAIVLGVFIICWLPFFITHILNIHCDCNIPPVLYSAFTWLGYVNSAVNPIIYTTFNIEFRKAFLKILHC
# TEST PROTOCOL: biochemical
# Format: binding, African Green monkey
pKi: −log10 of the molar value.
RECORDED METRIC: pKi

> print(dat)
                    structure.smiles.string  result
1  O=C(NCCCCN1CCN(c2cccc(Cl)c2Cl)CC1)c1ccc2c(c1)Cc1ccccc1-2    6.14

###

# TGT: D3 receptors (Chlorocebus aethiops, UniProt P52703)
# Sequence (P52703 whole entry): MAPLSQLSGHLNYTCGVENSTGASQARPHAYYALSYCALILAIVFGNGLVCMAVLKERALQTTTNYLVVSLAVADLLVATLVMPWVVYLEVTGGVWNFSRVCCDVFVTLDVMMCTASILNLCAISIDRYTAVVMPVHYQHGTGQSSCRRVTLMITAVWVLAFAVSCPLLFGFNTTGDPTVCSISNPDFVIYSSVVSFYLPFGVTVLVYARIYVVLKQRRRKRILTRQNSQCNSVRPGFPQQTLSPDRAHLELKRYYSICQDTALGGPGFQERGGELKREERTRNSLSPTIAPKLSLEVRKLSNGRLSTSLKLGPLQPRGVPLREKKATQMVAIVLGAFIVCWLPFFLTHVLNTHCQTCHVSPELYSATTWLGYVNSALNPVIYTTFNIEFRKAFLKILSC
# TEST PROTOCOL: biochemical
# Format: binding, African Green monkey
# MEASUREMENT CONTEXT: COS cells containing recombinant D3 receptors; 0.5 nM ^3 H-YM 09151-2; nonspecific binding with 1 mM spiperone; read-out: D3 Ki
Structures can show the parent of a compound that is named as a salt.
Catalogue of Ki readings, one per entry.
RECORDED METRIC: Ki (nM)

> print(dat)
                                   compound  recorded.metric  unit.annotation  result
1  O=C(NCCCCN1CCN(c2cccc3ccccc23)CC1)c1ccc2c(c1)Cc1ccccc1-2 [Compound 2, hydrochloride]               Ki               nM       1
2  O=C(NCCCCN1CCN(c2ccccc2Cl)CC1)c1ccc2c(c1)C(=O)c1ccccc1-2 [Compound 3, hydrochloride]               Ki               nM     0.7
